experimental.system: KRAS(G12C) (Homo sapiens, UniProt P01116, G12C)
Sequence (P01116 1-188 isoform P01116-2 G12C): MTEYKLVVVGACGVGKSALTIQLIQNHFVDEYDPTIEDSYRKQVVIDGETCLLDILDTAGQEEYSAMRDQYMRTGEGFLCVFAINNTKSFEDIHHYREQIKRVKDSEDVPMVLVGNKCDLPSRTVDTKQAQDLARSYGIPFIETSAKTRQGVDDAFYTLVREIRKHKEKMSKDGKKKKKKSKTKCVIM
run.description: KRAS(G12C)/SOS1 homogeneous time-resolved fluorescence (HTRF) assay
Parameters: purchased Cisbio 63ADK000CB16PEG
test.settings: absence of GTP, 4° C. for 3 hr, read-out: KRAS (G12C) binding
Description: KRAS(G12C)/SOS1 Homogeneous Time-Resolved Fluorescence (HTRF) Assay Binding of test compounds to KRAS(G12C) protein, which in turn blocks KRAS(G12C) interaction with the SOS1 protein, was measured in the absences of GTP by homogeneous time-resolved fluorescence (HTRF) using the KRAS-G12C/SOS1 Binding Assay Kit (Cisbio, #63ADK000CB16PEG), following the manufacturer's instructions, except as noted. 3-fold serial dilutions of each test compound were prepared ranging from M to 1.02 nM. […]
attribute.measured: IC50

Observe how each entry below is paired with its result.
1) C=CC(=O)N1CCN(c2nc(OC[C@@H]3C[C@@H](OCC(=O)N4CCC(CN5CCN(Cc6ccc(-n7c(O)nnc7-c7cc(C(C)C)c(O)cc7O)cc6)CC5)CC4)CN3C)nc3c2CCN(c2cccc4cccc(Cl)c24)C3)C[C@@H]1CC#N 0.1 to 1 µM
2) C=CC(=O)N1CCN(c2nc(OCCN3CCN(C(=O)C4CCN(Cc5ccc(-n6c(C(=O)NCC(F)(F)F)nnc6-c6cc(C(C)C)c(O)cc6O)cc5)CC4)CC3)nc3c2CCN(c2cccc4cccc(Cl)c24)C3)C[C@@H]1CC#N 0.1 to 1 µM
3) C=CC(=O)N1CCN(c2nc(OCCN3CCC(N4CCN(Cc5ccc(-n6c(O)nnc6-c6cc(C(C)C)c(O)cc6O)cc5)CC4)CC3)nc3c2CCN(c2cccc4cccc(Cl)c24)C3)C[C@@H]1CC#N 0.1 to 1 µM

Looking up "C=CC(=O)N1CCN(c2nc(OC[C@@H]3C[C@H](N4CCC5(CCN(Cc6ccc(-n7c(O)nnc7-c7cc(C(C)C)c(O)cc7O)cc6)CC5)CC4)CN3C)nc3c2CCN(c2cccc4ccccc24)C3)C[C@@H]1CC#N" , I found its IC50 recorded as 0.1 to 1 µM

Looking up "C=CC(=O)N1CCN(c2nc(OC[C@@H]3C[C@H](N4CCC(C(=O)N5CCN(Cc6ccc(-n7c(O)nnc7-c7cc(C)c(O)cc7O)cc6)CC5)CC4)CN3C)nc3c2CCN(c2cccc4cccc(Cl)c24)C3)C[C@@H]1CC#N" , I found its IC50 recorded as < 0.1 µM

Looking up "C=CC(=O)N1CCN(c2nc(OC[C@@H]3CC[C@H](C(=O)N4CCN(C(=O)C5CCN(Cc6ccc(-n7c(C(=O)NCC(F)(F)F)nnc7-c7cc(C)c(O)cc7O)cc6)CC5)CC4)N3C)nc3c2CCN(c2cccc4cccc(Cl)c24)C3)C[C@@H]1CC#N" , I found its IC50 recorded as < 0.1 µM

Looking up "C=CC(=O)N1CCN(c2nc(OC[C@@H]3C[C@H](NC(=O)C4CCN(C(=O)C5CCN(Cc6ccc(-n7c(C(=O)NCC(F)(F)C(F)(F)F)nnc7-c7cc(C(C)C)c(O)cc7O)cc6)CC5)CC4)CN3C)nc3c2CCN(c2cccc4cccc(Cl)c24)C3)C[C@@H]1CC#N" , I found its IC50 recorded as < 0.1 µM

Looking up "C=CC(=O)N1CCN(c2nc(OCCN3CCN(C(=O)c4ccc(-n5c(O)nnc5-c5cc(C(C)C)c(O)cc5O)cc4)CC3)nc3c2CCN(c2cccc4cccc(Cl)c24)C3)C[C@@H]1CC#N" , I found its IC50 recorded as > 1 µM

Looking up "C=CC(=O)N1CCN(c2nc(OCCN3CCC4(CC3)CCN(Cc3cc(C(C)C)c(O)cc3O)CC4)nc3c2CCN(c2cccc4cccc(Cl)c24)C3)C[C@@H]1CC#N" , I found its IC50 recorded as < 0.1 µM

Looking up "C=CC(=O)N1CCN(c2nc(OCC3CN(C(=O)c4ccc(-n5c(O)nnc5-c5cc(C(C)C)c(O)cc5O)cc4)C3)nc3c2CCN(c2cccc4cccc(Cl)c24)C3)C[C@@H]1CC#N" , I found its IC50 recorded as > 1 µM

Looking up "C=CC(=O)N1CCN(c2nc(OCCN3CCN(C(=O)C4CCN(Cc5ccc(-n6c(O)nnc6-c6cc(C(C)C)c(O)cc6O)cc5)CC4)CC3)nc3c2CCN(c2cccc4cccc(Cl)c24)C3)C[C@@H]1CC#N" , I found its IC50 recorded as < 0.1 µM

Looking up "C=CC(=O)N1CCN(c2nc(OC[C@@H]3C[C@H](N4CCN(Cc5ccc(-n6c(O)nnc6-c6cc(C)c(O)cc6O)cc5)CC4)CN3C)nc3c2CCN(c2cccc4cccc(Cl)c24)C3)C[C@@H]1CC#N" , I found its IC50 recorded as < 0.1 µM

Looking up "C=CC(=O)N1CCN(c2nc(OC[C@@H]3CC[C@H](C(=O)N4CCN(Cc5cc(C(C)C)c(O)cc5O)CC4)N3C)nc3c2CCN(c2cccc4cccc(Cl)c24)C3)C[C@@H]1CC#N" , I found its IC50 recorded as 0.1 to 1 µM

Entry source: patent US20230391772A1
